Reference for the values: patent US10131652B2

System: wild oat (Avena fatua)
Assay: Test D postemergence plant response
Format: in vivo
Settings: 125 g ai/ha, scale 0 to 100, 0 no effect, 100 complete control
REPORTED_METRIC: Plant response rating, Oat, Wild
The answer should be written as a number, with no unit following it.

Request: Look up Plant response rating, Oat, Wild of Clc1cnc(Oc2ccccc2-c2ccon2)nc1 and report it.
Response: 5

Request: Look up Plant response rating, Oat, Wild of Fc1ccc(Oc2ncc(Cl)cn2)c(-c2cc(C(F)F)on2)c1F and report it.
Response: 25

Request: Look up Plant response rating, Oat, Wild of Clc1cnc(Oc2ccccc2-c2cc(Cl)sn2)nc1 and report it.
Response: 5

Request: Look up Plant response rating, Oat, Wild of Fc1ccc(Oc2ncc(Cl)cn2)c(-c2cc(C(F)F)on2)c1Cl and report it.
Response: 20

Request: Look up Plant response rating, Oat, Wild of Cc1cc(-c2c(F)cccc2Oc2ncc(Cl)cn2)on1 and report it.
Response: 10
